Measured Pre-emerge Herbicidal Activity RICE by item
System: upland rice (Oryza sp., var. Tebonnet, RICE)
Experiment: Pre-emerge test, crop safety
Format: in vivo
Conditions: crop damage, pre-emerge, rate 250 g ai/ha, phytotoxicity rating 0-100 at 14 days after application
Result Type: Pre-emerge Herbicidal Activity RICE

* Cc1ccccc1COC(=O)Nc1c(C)c(Cl)cc(F)c1-n1c(=O)cc(C(F)(F)F)n(C)c1=O | 90
* COc1c(Cl)cc(F)c(N2C(=O)C3=C(CCCC3)C2=O)c1NC(=O)C=Cc1ccccc1 | 30
* CC(C)Oc1c(Cl)cc(F)c(N2C(=O)C3=C(CCCC3)C2=O)c1NC(=O)c1ccc(F)cc1F | 30
* O=C(Nc1cc(Cl)ccc1-n1c(=O)n2n(c1=O)CCCC2)c1ccc2ccccc2c1 | 50

The reported numbers originate from patent US6355799B1.
